B1: PhoQ; a variant is named by its letters at X, in order, P23837 (parent)
chain: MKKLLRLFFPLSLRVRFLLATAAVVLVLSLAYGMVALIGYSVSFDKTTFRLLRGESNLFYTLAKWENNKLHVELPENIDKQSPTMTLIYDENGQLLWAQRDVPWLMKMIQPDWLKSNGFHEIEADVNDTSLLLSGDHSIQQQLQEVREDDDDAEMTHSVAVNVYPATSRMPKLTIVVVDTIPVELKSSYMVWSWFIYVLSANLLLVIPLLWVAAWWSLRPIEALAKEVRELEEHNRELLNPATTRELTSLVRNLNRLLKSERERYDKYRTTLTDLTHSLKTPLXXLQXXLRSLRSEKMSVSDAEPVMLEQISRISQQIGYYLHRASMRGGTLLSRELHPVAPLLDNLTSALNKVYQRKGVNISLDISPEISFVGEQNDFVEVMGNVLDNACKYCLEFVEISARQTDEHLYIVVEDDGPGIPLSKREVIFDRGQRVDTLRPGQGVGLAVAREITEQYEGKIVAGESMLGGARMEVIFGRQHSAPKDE

# Variants of: B1
# ASSAY EXPLANATION: enrichment ratio after two sorts for PhoP signalling (ratio (wild type AVST 3.29)); higher = more functional
# CONDITION LABEL: with PhoP (E. coli)
Over roughly 140,000 sequences, “enrichment ratio after two sorts for PhoP signalling” has its median near 0; the highest 2% begin near 11. The full list was thinned out, with the highest values kept by preference.
Think of 10 as a floor: if enrichment ratio stands on it or above, it is Fulfilled; beneath it, Not fulfilled.

Lookup: Threshold query (enrichment ratio >= 10) on `AQSI`
Found: Fulfilled

Lookup: Confirm if enrichment ratio reported for the variant `SDFS` is 10 or above.
Found: Not fulfilled

Lookup: State whether the measured enrichment ratio reaches 10, counting equality as reaching it, for `SRLG`
Found: Not fulfilled

Lookup: In plain terms: is recorded enrichment ratio at least 10 for `WISW` ?
Found: Not fulfilled

Lookup: Form field: enrichment ratio at least 10? Entry: `TGEC`
Found: Not fulfilled

Lookup: Is reported enrichment ratio greater than or equal to 10 here: `AQRK`
Found: Not fulfilled

Lookup: Does `AGDT` have a reported enrichment ratio of at least 10?
Found: Not fulfilled

Lookup: Is reported enrichment ratio greater than or equal to 10 here: `KCDC`
Found: Not fulfilled

Lookup: Item `DLKR` with enrichment ratio of 10 or above?
Found: Not fulfilled

Lookup: Does the reported enrichment ratio for `QECY` fall at or above the 10 mark?
Found: Not fulfilled

Lookup: Can `AGAT` be said to have enrichment ratio at or above 10?
Found: Fulfilled

Lookup: Entry `TECY` : is its enrichment ratio no less than 10?
Found: Fulfilled

Lookup: I'd appreciate it if you could say whether `NHMN` has enrichment ratio at least equal to 10.
Found: Not fulfilled

Lookup: Does enrichment ratio meet or surpass 10 for `HECV` ?
Found: Fulfilled

Lookup: Form field: enrichment ratio at least 10? Entry: `CQNY`
Found: Fulfilled

Lookup: Decide: enrichment ratio of `IVSV` >= 10?
Found: Not fulfilled

Lookup: Is it the case that `NVTY` has enrichment ratio reaching or exceeding 10?
Found: Not fulfilled

Lookup: Determine whether this variant has enrichment ratio no lower than 10: `TISK`
Found: Not fulfilled

Lookup: Hello, I need to know if `TKSI` has measured enrichment ratio not below 10. Thanks!
Found: Fulfilled

Lookup: Is enrichment ratio at least 10? Consider `KSTY`
Found: Not fulfilled

Lookup: Evaluate `PGQT` : enrichment ratio at minimum 10?
Found: Not fulfilled

Lookup: In plain terms: is recorded enrichment ratio at least 10 for `SIIF` ?
Found: Not fulfilled

Lookup: # check: enrichment ratio of `THMN` is greater than or equal to 10
Found: Fulfilled

Lookup: // inclusive: enrichment ratio at least 10? input: `AISW`
Found: Fulfilled

Lookup: Could you verify whether the entry `ADSW` shows enrichment ratio of no less than 10?
Found: Not fulfilled

Lookup: # check: enrichment ratio of `RGMN` is greater than or equal to 10
Found: Not fulfilled

Lookup: Quick check: does `FSMN` have enrichment ratio greater than or equal to 10?
Found: Not fulfilled

Lookup: Can `IQCY` be said to have enrichment ratio at or above 10?
Found: Not fulfilled

Lookup: Hi, just wondering whether `TKWY` shows enrichment ratio of 10 or higher.
Found: Fulfilled

Lookup: Does enrichment ratio meet or surpass 10 for `TGMN` ?
Found: Fulfilled

Lookup: # check: enrichment ratio of `WKNR` is greater than or equal to 10
Found: Not fulfilled

Lookup: Evaluate `MWWC` : enrichment ratio at minimum 10?
Found: Not fulfilled

Lookup: Does the reported enrichment ratio for `HEQV` fall at or above the 10 mark?
Found: Fulfilled

Lookup: Reported enrichment ratio reaches at least 10 for `MQTH` ?
Found: Not fulfilled

Lookup: Would you say `ARSI` shows enrichment ratio at minimum 10?
Found: Not fulfilled

Lookup: Does the reported enrichment ratio for `EDEV` fall at or above the 10 mark?
Found: Not fulfilled

Lookup: Dear colleague, could you confirm whether `MICH` has enrichment ratio at or above 10?
Found: Not fulfilled

Lookup: Threshold query (enrichment ratio >= 10) on `SRCY`
Found: Not fulfilled

Lookup: Dear colleague, could you confirm whether `SILG` has enrichment ratio at or above 10?
Found: Not fulfilled

Lookup: Evaluate `RNCY` : enrichment ratio at minimum 10?
Found: Not fulfilled

Lookup: Entry `MQCC` : is its enrichment ratio no less than 10?
Found: Fulfilled

Lookup: Please indicate if the recorded enrichment ratio for `KSLG` meets or exceeds 10.
Found: Not fulfilled

Lookup: Tell me whether enrichment ratio is at least 10 here: `CQVY`
Found: Not fulfilled

Lookup: Tell me whether enrichment ratio is at least 10 here: `KSMN`
Found: Not fulfilled

Lookup: Hello, I need to know if `QSQN` has measured enrichment ratio not below 10. Thanks!
Found: Not fulfilled

Lookup: Is reported enrichment ratio greater than or equal to 10 here: `FFWN`
Found: Not fulfilled

Numbers sourced from a collection of fitness landscapes (doi:10.1126/science.1257360).
